Sourced from paper PMC4807222

Target: full-length Pin1 (1–163) (human, UniProt Q13526 1-163)
Sequence (Q13526 whole entry): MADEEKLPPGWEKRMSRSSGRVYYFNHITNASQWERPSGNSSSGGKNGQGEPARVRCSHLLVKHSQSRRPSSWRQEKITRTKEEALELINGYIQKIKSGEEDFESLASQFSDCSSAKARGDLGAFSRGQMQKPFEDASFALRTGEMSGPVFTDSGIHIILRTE
Experiment: ITC
Measurement label: Kd

Just so you know, measured Kd for pSer62-c-Myc_(1–88) (domain or fragment, human, UniProt P01106-1 1-88, looked up, phosphoserine at 62) MPLNVSFTNRNYDLDYDSVQPYFYCDEEENFYQQQQQSELQPPAPSEDIWKKFELLPTPPLSPSRRSGLCSPSYVAVTPFSLRGDNDG came out at 10 to 100 µM
